- Tested on: SK-MEL-2 melanoma
- PROTOCOL DESCRIPTION: NCI tumour cell line growth inhibition, 48 h

COMPOUND | GI50
C#COc1cccc(Nc2c(C#N)cnc3ncc(NC(=O)CCl)cc23)c1 | > 62.5 µM
N#CC1=C(N)Oc2cc(O)ccc2C1c1cccc2ccccc12 (stereo not given) | 11.7 µM
C[C@H]1[C@H](C)CC[C@]2(C(=O)Nc3ccc4ncccc4c3)CC[C@]3(C)C(=CC[C@@H]4[C@@]5(C)CCCNC(C)(C)[C@@H]5CC[C@]43C)[C@H]12 | 1.84 µM
OCCCNc1nccc(-c2c(-c3ccc(F)cc3)nn3cc(C(F)(F)F)ccc23)n1 | > 23.1 µM
COc1ccc(-c2ccc(-c3ccc(C(=N)N)s3)s2)cc1 | 2.22 µM
